Source of measurements: patent US20240209076A1

molecular target: recombinant human IL-6 (human, UniProt P05231 30-212); experiment: SPR, IL-6 on CM5 chip, Fab lysate, 25 C
Sequence (P05231 30-212 limits assumed): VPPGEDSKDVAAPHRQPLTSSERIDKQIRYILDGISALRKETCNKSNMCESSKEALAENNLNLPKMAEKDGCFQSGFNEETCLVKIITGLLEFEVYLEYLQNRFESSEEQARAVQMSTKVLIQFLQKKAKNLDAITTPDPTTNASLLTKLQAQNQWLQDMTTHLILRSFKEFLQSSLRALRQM
// reported koff per item
Observation type: koff

Binder	Observation type	Meas value
anti-IL-6 Fab, heavy chain V64F (Fab, V domains shown, see m39) VH: EVQLVESGGGLVQPGGSLRLSCAASGFTFSPFAMSWVRQAPGKGLEWVAKISPGGSWTYYSDTFTGRFTFSLDTSKSTAYLQMNSLRAEDTAVYYCARQLWGYYALDIWGQGTLVTVSS VL: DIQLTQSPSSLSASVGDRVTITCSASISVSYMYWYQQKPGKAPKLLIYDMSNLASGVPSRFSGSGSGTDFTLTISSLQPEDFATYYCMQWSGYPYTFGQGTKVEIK	koff	0.00684 s⁻¹
anti-IL-6 Fab, heavy chain G26R (Fab, V domains shown, see m39) VH: EVQLVESGGGLVQPGGSLRLSCAASRFTFSPFAMSWVRQAPGKGLEWVAKISPGGSWTYYSDTVTGRFTFSLDTSKSTAYLQMNSLRAEDTAVYYCARQLWGYYALDIWGQGTLVTVSS VL: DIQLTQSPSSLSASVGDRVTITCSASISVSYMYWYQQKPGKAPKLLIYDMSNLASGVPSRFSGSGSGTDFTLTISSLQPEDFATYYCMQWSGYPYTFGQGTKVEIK	koff	0.00381 s⁻¹
anti-IL-6 Fab, heavy chain T65G (Fab, V domains shown, see m39) VH: EVQLVESGGGLVQPGGSLRLSCAASGFTFSPFAMSWVRQAPGKGLEWVAKISPGGSWTYYSDTVGGRFTFSLDTSKSTAYLQMNSLRAEDTAVYYCARQLWGYYALDIWGQGTLVTVSS VL: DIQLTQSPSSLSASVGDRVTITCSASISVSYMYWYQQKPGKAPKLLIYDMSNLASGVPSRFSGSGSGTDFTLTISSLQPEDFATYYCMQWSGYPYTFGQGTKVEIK	koff	0.0057 s⁻¹
